# ASSAYED_SYSTEM: BAZ2B (Homo sapiens)
# Construct: representative BRDs from other structural subfamilies (family I, PCAF); family III, CREBBP; family IV, BRD9; family V, BAZ2B; made in house
# Sequence (Q9UIF8 2060-2164 limits assumed): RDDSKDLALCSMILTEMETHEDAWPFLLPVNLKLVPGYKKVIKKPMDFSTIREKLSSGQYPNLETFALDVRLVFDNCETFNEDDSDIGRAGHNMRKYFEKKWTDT
# PROTOCOL_NOTES: Protein stability (thermal) shift assay, BAZ2B
# Type: binding
# ASSAY_CONTEXT: compound 10 μM, protein 2 μM; average of triplicate; read-out: ΔTm Shift, BAZ2BA
VALUE_TYPE: ΔTm at 10 µM (°C)

CHEM_SMILES	MEASUREMENT_UNIT	ΔTm at 10 µM
Nc1nc(-c2ccc3c(c2)OCCO3)c2nc[nH]c2n1	°C	-0.9
COc1ccc(F)cc1-c1nc(N)nc2[nH]cnc12	°C	0.3

[A] CCCCOc1cc(Br)cc(-c2nc(N)nc3c2ncn3C)c1
[B] COc1ccc(Br)cc1-c1nc(O)nc2[nH]cnc12
[C] COc1cccc(OC(C)C)c1-c1nc(N)nc2[nH]cnc12
Exercise: Rank ascending by ΔTm at 10 µM. Thanks in advance for listing the labels in the requested order.
Key: C, A, B
(C: -0.3 °C, A: 0.217 °C, B: 0.563 °C)
